STUDY_SYSTEM: T1, human β-amyloid 1-40 (human, UniProt P05067 672-711)
T1 construct: domain: β-amyloid (1-40); Used in solution over captured antibody (Biacore) or coated on ELISA plates; also called human Aβ peptide (1-40); Aβ peptide (1-40)
T1 sequence (P05067 672-711 limits assumed): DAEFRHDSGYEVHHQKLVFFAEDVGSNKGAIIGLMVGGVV
PROCEDURE_SUMMARY: SPR Biacore T100; antibody captured on anti-human IgG, Aβ 1-40 at 1-256 nM; 1:1 model
Description: Anti-human IgG (Biacore BR-1008-39) was coupled to a CM5 biosensor chip by primary amine coupling. The anti-beta amyloid antibodies were captured on this surface. Beta amyloid (1-40) was then passed over at 256, 64, 16, 4 and 1 nM, with a 0 nM (ie buffer alone passed over the captured antibody surface) used for double referencing. […] The data was analysed using the 1:1 model inherent to the T100. The run was carried out at 25° C. and 37° C. using HBS-EP as the running buffer.
QUANTITY: Kd (nM)
Report the figure in nM without appending any unit label.

# BINDER, Kd / nM
data = [
    ("humanised de-immunised construct H50L20 (antibody, human IgG1, V domains shown) VH: QVQLVQSGAEVKEPGASVKVSCTGSGFNIHVYYVHWLRQLPEKGLEWIGRIDPENGETIYTPKFQDKATLTVDTSTDTAYMELSSLRSEDTAVYYCVSSGYWGQGTLVTVSS VL: DIVMTQSPLSNPVTPGEPASISCRSSKSLLHRNGITYLYWYLQKPGQSPQLLIYQMDHLASGVPDRFSSSGSGTDFTLKISRVEAEDVGVYYCAQNLELWTFGQGTKVEIK", 2.5),
    ("humanised de-immunised construct H48L20 (antibody, human IgG1, V domains shown) VH: QVQLVQSGAEVKEPGASVKVSCKGSGFNIHVYYVHWLRQLPEKGLEWIGRIDPENGETIYTPKFQDKATLTVDTSTDTAYMELSSLRSEDTAVYYCVSSGYWGQGTLVTVSS VL: DIVMTQSPLSNPVTPGEPASISCRSSKSLLHRNGITYLYWYLQKPGQSPQLLIYQMDHLASGVPDRFSSSGSGTDFTLKISRVEAEDVGVYYCAQNLELWTFGQGTKVEIK", 2.02),
]

Consider the additional binder presented here.
Consider the binder humanised de-immunised construct H51L19 (antibody, human IgG1, V domains shown) VH: QVQLVQSGAEVKEPGASVKVSCKGSGFNIHTYYVHWLRQLPEKGLEWIGRIDPENGETIYTPKFQDKATLTVDTSTDTAYMELSSLRSEDTAVYYCVSSGYWGQGTLVTVSS VL: DIVMTQSPLSNPVTPGEPASISCRSSKSLLHRNGKTYLYWYLQKPGQSPQLLIYQMDHLASGVPDRFSSSGSGTDFTLKISRVEAEDVGVYYCAQNLELWTFGQGTKVEIK and give its recorded Kd.
2.65
